Values were extracted from patent US11634447B2.

molecular target: FimH-CRD (Escherichia coli); construct: The first 177 amino acids of the FimH protein are expressed as a fusion protein; thrombin tag (printed as 'fusion protein with thrombin') (cleaved yes); made in house; host or cells: bacteria (pET21b plasmid); experiment: Competitive binding assay by fluorescence polarization, assay 2 (compounds prepared by a robotics system, plates frozen and thawed); parameters: species or system E. coli; conditions: Assay 2 Kd, 5 nM Alexa 647 mannoside probe, 60 nM FimH-CRD, replicate values in one cell
Sequence (P08191 22-177): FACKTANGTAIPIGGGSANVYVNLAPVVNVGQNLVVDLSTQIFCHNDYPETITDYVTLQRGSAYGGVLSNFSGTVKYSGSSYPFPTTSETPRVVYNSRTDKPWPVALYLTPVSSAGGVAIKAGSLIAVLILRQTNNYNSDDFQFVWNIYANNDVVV
Experimental endpoint: Kd

Form: compound = OC[C@H]1O[C@H](C#Cc2ccc3cc(C#C[C@H]4O[C@H](CO)[C@@H](O)[C@H](O)[C@@H]4O)ccc3c2)[C@@H](O)[C@@H](O)[C@@H]1O [Compound 59] ; Kd = < 5 nM

// Kd lookup, compound = O=C(NCCCCCNC(=O)c1cccc([C@H]2O[C@H](CO)[C@@H](O)[C@H](O)[C@@H]2O)c1)c1cccc([C@H]2O[C@H](CO)[C@@H](O)[C@H](O)[C@@H]2O)c1 [Compound 11] , result: 16 nM

Looking up OC[C@H]1O[C@H](C#Cc2cccc(C#C[C@H]3O[C@H](CO)[C@@H](O)[C@H](O)[C@@H]3O)c2)[C@@H](O)[C@@H](O)[C@@H]1O [Compound 57] , I see its Kd listed as < 5 nM
